The origin of these recorded values is patent US12371454B2.

Form field: pIC50 (one value per entry).
# targetOrTestSystem: Kras and SOS1 (biotin-tagged human Kras loaded with GDP, His-tagged human SOS1) (Homo sapiens, UniProt P01116, G12D)
# Construct: made in house; host or cells: E. coli (stated for Kras only)
# Sequence (P01116 1-188 isoform P01116-2 G12D): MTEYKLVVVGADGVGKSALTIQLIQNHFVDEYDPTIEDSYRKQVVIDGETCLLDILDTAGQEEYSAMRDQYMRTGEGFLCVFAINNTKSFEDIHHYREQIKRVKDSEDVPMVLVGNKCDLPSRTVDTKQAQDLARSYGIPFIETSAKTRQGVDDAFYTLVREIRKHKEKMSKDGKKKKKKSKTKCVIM
# assaySummary: Protein-protein interaction inhibition between Kras and SOS1 (KrasGl2D-SOS PPI) using AlphaScreen
# Type: binding
# measurementConditions: AlphaScreen; biotin-tagged human Kras loaded with GDP, His-tagged human SOS1; read-out: KRAS G12D-SOS PPI IC50
Positions of bridges follow the written chain, without caps; N, C: chain ends. Non-standard residues stand in square brackets, D forms with d. Residues, ends and D or L forms follow the SMILES beside them. *: point of attachment. NMeAbu(3,3-F2-piperidino) = CN[C@@H](CCN1CCCC(F)(F)C1)C(=O)O; hPhe(3-Cl-4-CF3) = N[C@@H](CCc1ccc(C(F)(F)F)c(Cl)c1)C(=O)O; NMeAla(cPr) = CN[C@@H](CC1CC1)C(=O)O; NMeCha = CN[C@@H](CC1CCCCC1)C(=O)O; NMeChg = CN[C@H](C(=O)O)C1CCCCC1; NMeD = CN[C@@H](CC(=O)O)C(=O)O; NMeL = CN[C@@H](CC(C)C)C(=O)O; NMeV = CN[C@H](C(=O)O)C(C)C; dIva = CC[C@@](C)(N)C(=O)O; NMeS = CN[C@@H](CO)C(=O)O; NMeA = CN[C@@H](C)C(=O)O; Piperidide = C1CCN(*)CC1; Ac5c = NC1(C(=O)O)CCCC1; Aze = O=C(O)[C@@H]1CCN1; Sar = CNCC(=O)O
// pIC50 here means minus log10 of the molar concentration (mol/L)

Examples with their reported pIC50 follow.
CC[C@H](C)[C@@H]1NC(=O)[C@H](CC(C)C)N(C)C(=O)C[C@@H](C(=O)N2CCCCC2)N(C)C(=O)[C@H](C(C)C)N(C)C(=O)[C@@](C)(CC)NC(=O)[C@@H]2CCCN2C(=O)[C@H](CCc2ccc(C(F)(F)F)c(Cl)c2)NC(=O)CN(C)C(=O)[C@H](CC2CCCCC2)N(C)C(=O)CN(C)C(=O)CN(C)C1=O [Compound 1130] ([NMeL]I[Sar][Sar][NMeCha][Sar][hPhe(3-Cl-4-CF3)]P[dIva][NMeV][NMeD]-Piperidide; lactam N-11) = 8.36
CC[C@H](C)[C@@H]1NC(=O)[C@H](C)N(C)C(=O)C[C@@H](C(=O)N2CCCCC2)N(C)C(=O)[C@H](C(C)C)N(C)C(=O)C2(CCCC2)NC(=O)[C@H](CCN2CCCC(F)(F)C2)N(C)C(=O)[C@H](CCc2ccc(C(F)(F)F)c(Cl)c2)NC(=O)CN(C)C(=O)[C@H](CC2CCCCC2)N(C)C(=O)[C@@H]2CCN2C(=O)[C@H](C)N(C)C1=O [Compound 682] ([NMeA]I[NMeA][Aze][NMeCha][Sar][hPhe(3-Cl-4-CF3)][NMeAbu(3,3-F2-piperidino)][Ac5c][NMeV][NMeD]-Piperidide; lactam N-11) = 7.70
CC[C@H](C)[C@@H]1NC(=O)[C@H](CC(C)C)N(C)C(=O)C[C@@H](C(=O)N2CCCCC2)N(C)C(=O)[C@H](C2CCCCC2)N(C)C(=O)[C@@H](C)NC(=O)[C@@H]2CCCN2C(=O)[C@H](CCc2ccc(C(F)(F)F)c(Cl)c2)NC(=O)CN(C)C(=O)[C@H](CC2CCCCC2)N(C)C(=O)CN(C)C(=O)CN(C)C1=O [Compound 917] ([NMeL]I[Sar][Sar][NMeCha][Sar][hPhe(3-Cl-4-CF3)]P[dA][NMeChg][NMeD]-Piperidide; lactam N-11) = 8.70

Task: Provide one value: measured pIC50 of CC[C@H](C)[C@@H]1NC(=O)[C@H](CC2CC2)N(C)C(=O)C[C@@H](C(=O)N2CCCCC2)N(C)C(=O)[C@H](C2CCCCC2)N(C)C(=O)C2(CCCC2)NC(=O)[C@@H]2CCCN2C(=O)[C@H](CCc2ccc(C(F)(F)F)c(Cl)c2)NC(=O)CN(C)C(=O)[C@H](CC2CCCCC2)N(C)C(=O)CN(C)C(=O)CN(C)C1=O [Compound 68] ([NMeAla(cPr)]I[Sar][Sar][NMeCha][Sar][hPhe(3-Cl-4-CF3)]P[Ac5c][NMeChg][NMeD]-Piperidide; lactam N-11)
Output: 9.24

Task: Provide one value: measured pIC50 of CC[C@H](C)[C@@H]1NC(=O)[C@H](CO)N(C)C(=O)C[C@@H](C(=O)N2CCCCC2)N(C)C(=O)[C@H](C2CCCCC2)N(C)C(=O)C2(CCCC2)NC(=O)[C@@H]2CCCN2C(=O)[C@H](CCc2ccc(C(F)(F)F)c(Cl)c2)NC(=O)CN(C)C(=O)[C@H](CC2CCCCC2)N(C)C(=O)CN(C)C(=O)CN(C)C1=O [Compound 1713] ([NMeS]I[Sar][Sar][NMeCha][Sar][hPhe(3-Cl-4-CF3)]P[Ac5c][NMeChg][NMeD]-Piperidide; lactam N-11)
Output: 9.31
